- ASSAY SYSTEM: 3-hydroxyacyl-CoA dehydrogenase type-2 (Homo sapiens)
- RUN DESCRIPTION: qHTS Assay for Inhibitors of HSD17B4, hydroxysteroid (17-beta) dehydrogenase 4
- STATED CONDITIONS: recombinant HSD17B10, NADH fluorescence kinetic; series mostly up to 57.1 µM
- Protocol: Assay Overview: NIH Molecular Libraries Screening Centers Network [MLSCN] NIH Chemical Genomics Center [NCGC] Structural Genomics Consortium [SGC] […] An increase in the fluorescence intensity due to conversion of NAD+ to NADH was used to measure the enzyme activity. Assay Protocol: Buffer: 100 mM Tris-HCl pH 9.0, containing 0.01 % Tween-20. […] The fluorescence intensity difference between the last and the first time points was used to compute reaction progress.
Screen size: about 75,000 compounds; about 5,700 (7.6%) were called active. Another 7% or so got no clear call; they are omitted. Calls come from the whole dose curve; as a rule, active = well fitted inhibition curve with a large enough effect; inconclusive = small, poorly fitted or top-dose-only effect; inactive = no such curve, though single readings can be large or run the other way. The entries come from a sample that favours actives as a whole.
Hi! Could you answer with just one of these? YES for active, NO for inactive

For orientation, consider the following solved cases.
CC1(C)OC2CO[C@]3(COS(N)(=O)=O)OC(C)(C)OC3C2O1 (stereo not given in full) | NO
CC(C)C(N)C(=O)OCCOCn1cnc2c(=O)[nH]c(N)nc21 (stereo not given) | NO
COc1ccc(-c2noc(COc3ccc(Cl)c(C)c3)n2)cc1 | NO

Task: Per the assay record, what outcome was assigned to CC(Cc1ccccc1)C(=O)N(C)Cc1ccccc1 (stereo not given) ?
Output: NO

Task: # repeat for `O=S(=O)(N1CCOCC1)N1CCN(c2ccccc2F)CC1`
Output: NO

* * *

- ASSAY SYSTEM: 3-hydroxyacyl-CoA dehydrogenase type-2 (Homo sapiens)
- RUN DESCRIPTION: qHTS Assay for Inhibitors of HSD17B4, hydroxysteroid (17-beta) dehydrogenase 4
- STATED CONDITIONS: recombinant HSD17B10, NADH fluorescence kinetic; series mostly up to 57.1 µM
In all, about 75,000 compounds went through this assay and about 5,700 (7.6%) were called active. About 7% were inconclusive and are not listed. Calls follow the shape of the dose curve; as a rule, active = well fitted inhibition curve with a large enough effect; inconclusive = small, poorly fitted or top-dose-only effect; inactive = no such curve, though single readings can be large or run the other way. For the sample, actives were picked, then their nearest neighbours and some compounds at random.
Hi! Could you answer with just one of these? true (1) = active, false (0) = inactive

CCCCC(CC)CN (stereo unspecified) | false (0)
CN(Cc1ccccc1)c1nc2c(c(=O)[nH]c(=O)n2C)n1CCSc1nc2ccccc2[nH]1 | false (0)
CC(C)CCn1c(CN(C)Cc2ccccc2)nc2c1c(=O)n(C)c(=O)n2C | false (0)
CCC1(C)Cc2c(sc3nc4n(c(=O)c23)CCCS4)CO1 (stereo unspecified) | true (1)
CSC1=NCCN1C(=O)c1ccc(S(=O)(=O)N2CCOCC2)cc1 | false (0)
CCCCc1c(O)nc2n(c1=O)CCS2 | false (0)

Task: Per the assay record, what outcome was assigned to `Cc1c(C(=O)Nc2ccccc2Cl)oc2ccc(S(=O)(=O)N3CCC4(CC3)OCCO4)cc12` ?
Output: true (1)

Task: # repeat for `O=C(O)CCC(=O)NCc1ccc2[nH]c3c(c2c1)CCCC3`
Output: false (0)

Task: # repeat for `CCCCOc1ccc(C(=O)NCc2ccco2)cc1`
Output: false (0)

Task: # repeat for `Cc1ccnc(SCCn2c(N(C)Cc3ccccc3)nc3c2c(=O)n(C)c(=O)n3C)n1`
Output: true (1)

Task: # repeat for CC1(C)C(=O)C2(CCCCC2)C(=O)OC1c1cccs1 (stereo unspecified)
Output: false (0)

* * *

- ASSAY SYSTEM: 3-hydroxyacyl-CoA dehydrogenase type-2 (Homo sapiens)
- RUN DESCRIPTION: qHTS Assay for Inhibitors of HSD17B4, hydroxysteroid (17-beta) dehydrogenase 4
- STATED CONDITIONS: recombinant HSD17B10, NADH fluorescence kinetic; series mostly up to 57.1 µM
The whole screen tested about 75,000 compounds, of which about 5,700 (7.6%) were called active. Another 7% or so got no clear call; they are omitted. The call rests on the fitted dose curve; in most records, active means well fitted inhibition curve with a large enough effect; inconclusive means small, poorly fitted or top-dose-only effect; inactive means no such curve, though single readings can be large or run the other way. This excerpt belongs to a sample that is enriched for actives.
Hi! Could you answer with just one of these? label 1 (active), label 0 (inactive)

For orientation, consider the following solved cases.
CCNC(=S)NCC | label 0
COC(=O)Cc1nc2ccccc2[nH]1 | label 0
c1ccc(-c2[nH]ncc2-c2nc3ccccc3[nH]2)cc1 | label 1
O=C(Nc1ccccc1N1CCCCC1)c1cccc(F)c1 | label 0
Cc1ccc(Cn2ccc(NC(=O)c3cc(C(C)C)on3)n2)cc1 | label 0
C=CCSc1nc2ccccc2[nH]1 | label 0

Consider the record given below.
Task: Per the assay record, what outcome was assigned to `c1ccc2[nH]c(-c3nc4ccccc4[nH]3)nc2c1` ?
Output: label 1

* * *

- ASSAY SYSTEM: 3-hydroxyacyl-CoA dehydrogenase type-2 (Homo sapiens) (UniProt Q99714)
- RUN DESCRIPTION: qHTS Assay for Inhibitors of HSD17B4, hydroxysteroid (17-beta) dehydrogenase 4;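 note: the protocol describes HADH2 (HSD17B10) and not the HSD17B4 of the title; nearly all actives have a fitted effect of over 70% in size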
- STATED CONDITIONS: recombinant HSD17B10, NADH fluorescence kinetic; series mostly up to 57.1 µM
Out of some 75,000 compounds screened, about 5,700 (7.6%) were called active. Roughly 7% stayed inconclusive and do not appear here. Calls follow the shape of the dose curve; as a rule, active = well fitted inhibition curve with a large enough effect; inconclusive = small, poorly fitted or top-dose-only effect; inactive = no such curve, though single readings can be large or run the other way. Many of the other results were omitted from the sample, so actives are more common in it than they were.
Hi! Could you answer with just one of these? active, inactive

Task: Per the assay record, what outcome was assigned to `Cc1ccnc(-n2sc3ccccc3c2=O)n1` ?
Output: active

Task: # repeat for `CCCn1c(SCC(=O)N2CCc3ccccc32)nnc1-c1ccncc1`
Output: inactive

Task: # repeat for `COc1ccc2oc(=O)c(C(=O)N3CCN(c4ccccc4F)CC3)cc2c1`
Output: active

* * *

- ASSAY SYSTEM: 3-hydroxyacyl-CoA dehydrogenase type-2 (Homo sapiens)
- RUN DESCRIPTION: qHTS Assay for Inhibitors of HSD17B4, hydroxysteroid (17-beta) dehydrogenase 4;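 note: the protocol describes HADH2 (HSD17B10) and not the HSD17B4 of the title; nearly all actives have a fitted effect of over 70% in size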
- STATED CONDITIONS: recombinant HSD17B10, NADH fluorescence kinetic; series mostly up to 57.1 µM
Among all 75,000 compounds or so, about 5,700 (7.6%) were called active. Roughly 7% stayed inconclusive and do not appear here. Calls follow the shape of the dose curve; as a rule, active = well fitted inhibition curve with a large enough effect; inconclusive = small, poorly fitted or top-dose-only effect; inactive = no such curve, though single readings can be large or run the other way. The sample as a whole holds a higher share of actives than the screen did.
Hi! Could you answer with just one of these? class 1 = active, class 0 = inactive

For orientation, consider the following solved cases.
Cc1cccc(N2CCN(S(=O)(=O)c3ccc4c(c3)c(=O)n(C)c(=O)n4C)CC2C)c1 (stereo unspecified) | class 0
O=C(Cn1cc2c(n1)CCCCC2)NCCN1CCOCC1 | class 0
CNC(=O)C1(C)C=CC2(CCCCC2)N1C(C)=O (stereo unspecified) | class 0
CCN(CC)S(=O)(=O)c1cccc(C(=O)Nc2ccccc2)c1 | class 0
CC1=C(C(=O)Nc2ccccc2)C(c2cccs2)C(C#N)=C(SCC#N)N1 (stereo unspecified) | class 1
CC1CCCC(N2CCN(C(=O)c3ccc(F)cc3)CC2)C1 (stereo unspecified) | class 0

Consider the record given below.
Task: Per the assay record, what outcome was assigned to CN1CCN(S(=O)(=O)c2ccc(NC(=O)C3CCCO3)cc2)CC1 (stereo unspecified) ?
Output: class 0

* * *

- ASSAY SYSTEM: 3-hydroxyacyl-CoA dehydrogenase type-2 (Homo sapiens) (UniProt Q99714)
- RUN DESCRIPTION: qHTS Assay for Inhibitors of HSD17B4, hydroxysteroid (17-beta) dehydrogenase 4;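 note: the protocol describes HADH2 (HSD17B10) and not the HSD17B4 of the title; nearly all actives have a fitted effect of over 70% in size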
- STATED CONDITIONS: recombinant HSD17B10, NADH fluorescence kinetic; series mostly up to 57.1 µM
- Description: Assay Overview: NIH Molecular Libraries Screening Centers Network [MLSCN] NIH Chemical Genomics Center [NCGC] Structural Genomics Consortium [SGC] […] An increase in the fluorescence intensity due to conversion of NAD+ to NADH was used to measure the enzyme activity. Assay Protocol: Buffer: 100 mM Tris-HCl pH 9.0, containing 0.01 % Tween-20. […] The fluorescence intensity difference between the last and the first time points was used to compute reaction progress.
In all, about 75,000 compounds went through this assay and about 5,700 (7.6%) were called active. Inconclusive results (about 7%) are left out. Calls come from the whole dose curve; as a rule, active = well fitted inhibition curve with a large enough effect; inconclusive = small, poorly fitted or top-dose-only effect; inactive = no such curve, though single readings can be large or run the other way. Many of the other results were omitted from the sample, so actives are more common in it than they were.
Hi! Could you answer with just one of these? YES = active, NO = inactive

CCCn1nnc2sc3c(c2c1=O)CCC(C)C3 (stereo not given) | NO
COC(=O)CSc1nc(C2CC2)nc2ccccc12 | NO
CC(=O)Oc1ccc2c(C)c(CC(C)O)c(=O)oc2c1 (stereo not given) | YES

Task: Per the assay record, what outcome was assigned to `CC1=C(/C=C/C(C)=C/C=C/C(C)=C/C=C/C=C(C)/C=C/C=C(C)/C=C/C2=C(C)CCCC2(C)C)C(C)(C)CCC1` ?
Output: NO

Task: # repeat for `COc1ccc(-c2oc3cc(OC)ccc3c2C(=O)c2ccc(C#N)cc2)cc1`
Output: NO

* * *

- ASSAY SYSTEM: 3-hydroxyacyl-CoA dehydrogenase type-2 (Homo sapiens)
- RUN DESCRIPTION: qHTS Assay for Inhibitors of HSD17B4, hydroxysteroid (17-beta) dehydrogenase 4;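 note: the protocol describes HADH2 (HSD17B10) and not the HSD17B4 of the title; nearly all actives have a fitted effect of over 70% in size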
- STATED CONDITIONS: recombinant HSD17B10, NADH fluorescence kinetic; series mostly up to 57.1 µM
Hit rate of the full screen: of about 75,000 compounds, about 5,700 (7.6%) were called active. About 7% were inconclusive and are not listed. Calls follow the shape of the dose curve; as a rule, active = well fitted inhibition curve with a large enough effect; inconclusive = small, poorly fitted or top-dose-only effect; inactive = no such curve, though single readings can be large or run the other way. This excerpt belongs to a sample that is enriched for actives.
Hi! Could you answer with just one of these? 1.0 = active, 0.0 = inactive

For orientation, consider the following solved cases.
CC(c1cccnc1)N(CCN(C)C)C(=O)Nc1ccc(Cl)c(Cl)c1 (stereo unspecified) | 0.0
COc1ccc(N(CC(=O)NC2CCCCCCC2)S(=O)(=O)c2c(C)nn(C)c2C)cc1 | 0.0

Consider the record given below.
Task: Per the assay record, what outcome was assigned to `Cc1nc2cnc(N3CCN(C)CC3)nc2n(C[C@H]2CCCO2)c1=O` ?
Output: 1.0
